# assay-procedure: recombinant UMI read abundance after kanamycin selection (control-corrected) (log10(CPM+1)); higher = more efficient recombination; extreme values may be limits of the assay; sequences stand for … in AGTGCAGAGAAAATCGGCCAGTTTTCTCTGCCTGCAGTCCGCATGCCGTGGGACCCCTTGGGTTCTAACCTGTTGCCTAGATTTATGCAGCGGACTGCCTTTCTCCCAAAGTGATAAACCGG…AGGTTGGTTTCACT; site = the 11-nt donor
Classify by measured recombinant UMI read abundance (log10): Satisfied if it is equal to or exceeds 0.1, Not satisfied if it is smaller.

Problem: Could you tell me if the measured recombinant UMI read abundance (log10) of ACTTGTGCATGGACCGGTTTTCCCGGTAATCCGTATTTGGT (site ACTCGTGCTAC) reaches 0.1 or more?
Result: Satisfied

Problem: Could you tell me if the measured recombinant UMI read abundance (log10) of CACTCCTCATGGACCGGTTTTCCCGGTAATCCGTATTTGCC (site AACTCCTCTGG) reaches 0.1 or more?
Result: Satisfied

----------
# assay-procedure: recombinant barcode read abundance after kanamycin selection (control-corrected) (log10(CPM+1)); higher = more efficient recombination; sequences stand for … in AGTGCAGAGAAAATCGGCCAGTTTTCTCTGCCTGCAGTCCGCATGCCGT…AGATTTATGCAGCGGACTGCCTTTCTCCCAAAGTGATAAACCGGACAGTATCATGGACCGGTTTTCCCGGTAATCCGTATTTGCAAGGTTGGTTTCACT; site = the 11-nt target
Categories are assigned from the measured recombinant barcode read abundance (log10) using these intervals: A (below 0.1), B (0.1 to below 0.4), C (0.4 or more)

Problem: // return the class label for GATGGACCTTGGGTTCTAACCTGTTGCTA (site ATGTCTGCTAG)
Result: A

Problem: // return the class label for CACTTGACTTGGGTTCTAACCTGTTGCTT (site CACTTGACTAA)
Result: B

----------
# assay-procedure: recombinant UMI read abundance after kanamycin selection (control-corrected) (log10(CPM+1)); higher = more efficient recombination; extreme values may be limits of the assay; sequences stand for … in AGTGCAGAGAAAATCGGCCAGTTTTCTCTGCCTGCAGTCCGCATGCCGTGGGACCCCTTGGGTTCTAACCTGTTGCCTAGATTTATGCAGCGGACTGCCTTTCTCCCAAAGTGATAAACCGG…AGGTTGGTTTCACT; site = the 11-nt donor
Classify by measured recombinant UMI read abundance (log10): Satisfied if it is equal to or exceeds 0.01, Not satisfied if it is smaller.

Illustrative cases are given below, each with its answer.
[
  {
    "chain-sequence": "GTTAGAACATGGACCGGTTTTCCCGGTAATCCGTATTTGGC (site GGTAGAACTGC)",
    "discrete-label": "Not satisfied"
  },
  {
    "chain-sequence": "GCGAAGACATGGACCGGTTTTCCCGGTAATCCGTATTTGGG (site GCGAAGCCTCC)",
    "discrete-label": "Not satisfied"
  },
  {
    "chain-sequence": "CACTCCGCATGGACCGGTTTTCCCGGTAATCCGTATTTGCC (site CACTCCTCTGG)",
    "discrete-label": "Satisfied"
  },
  {
    "chain-sequence": "ACTAGAACATGGACCGGTTTTCCCGGTAATCCGTATTTGAC (site ACTAGAACTAT)",
    "discrete-label": "Not satisfied"
  }
]

Problem: Could you tell me if the measured recombinant UMI read abundance (log10) of GAGCAAGCATGGACCGGTTTTCCCGGTAATCCGTATTTGCA (site GAGCAAGCTTG) reaches 0.01 or more?
Result: Satisfied

Problem: Could you tell me if the measured recombinant UMI read abundance (log10) of GCTGGAGCATGGACCGGTTTTCCCGGTAATCCGTATTTGAG (site GCTGGAGCTCT) reaches 0.01 or more?
Result: Satisfied

Problem: Could you tell me if the measured recombinant UMI read abundance (log10) of CCGATAGCATGGACCGGTTTTCCCGGTAATCCGTATTTGTG (site CCGGTAGCTCA) reaches 0.01 or more?
Result: Not satisfied

Problem: Could you tell me if the measured recombinant UMI read abundance (log10) of GATTATCCATGGACCGGTTTTCCCGGTAATCCGTATTTGTT (site GATTATCCTAC) reaches 0.01 or more?
Result: Not satisfied

Problem: Could you tell me if the measured recombinant UMI read abundance (log10) of GTAGGTACATGGACCGGTTTTCCCGGTAATCCGTATTTGAA (site GTAGGTACTGT) reaches 0.01 or more?
Result: Satisfied

Problem: Could you tell me if the measured recombinant UMI read abundance (log10) of ACGAAAACATGGACCGGTTTTCCCGGTAATCCGTATTTGCT (site GCGAAAACTAG) reaches 0.01 or more?
Result: Satisfied
